These measurements were taken from patent US20260193366A1.

- measurement-target: T1, cynomolgus monkey IL-4Rα (cynomolgus monkey, UniProt P24394 26-231 (human entry), limits assumed)
- T1 construct: also called Cyno IL-4Rα; cyIL-4Rα
- T1 chain: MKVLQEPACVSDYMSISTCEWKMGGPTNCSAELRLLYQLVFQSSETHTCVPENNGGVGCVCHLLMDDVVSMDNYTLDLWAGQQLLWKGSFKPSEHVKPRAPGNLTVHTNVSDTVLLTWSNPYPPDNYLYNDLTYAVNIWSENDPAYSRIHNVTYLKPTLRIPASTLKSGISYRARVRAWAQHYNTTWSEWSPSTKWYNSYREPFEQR
- assay-comment: SPR, Carterra LSA;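 note: antibodies captured on an anti-human Fc sensor chip, antigen injected at several concentrations, association and dissociation rates fitted with a 1:1 Langmuir model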
Readings of Kd for the listed binders
# include the unit after the value

binder	Kd
Construct 20 (mAb428) (antibody, IgG4, V domains shown, VH/VL only) VH: EVQLVESGGGLEQPGGSLRLSCAGSGFTFRDFAMTWVRQAPGKGLEWVSSISGSGDNTYYADSVKGRFTISRDNSKNTLYLQMNSLRAEDTAVYYCAKDRLSITVRPRYYGLDVWGQGTTVTVSS VL: DIVMTQSPLSLPVTPGEPASISCTSSQSLLYSIGYNYVDWYLQKSGQSPQLLIYLGNKRASGVPDRFSGSGSGTDFTLKISRVEAEDVGFYYCMQSLQTPYVFGQGTKLEIK	80.8 nM

Next binder, Kd to be filled in.
Ask: Given Construct 24 (mAb432) (antibody, IgG4, V domains shown, VH/VL only) VH: EVQLVESGGGLEQPGGSLRLSCAGSGFTFRDFAMTWVRQAPGKGLEWVSSISGSGGNIYYADSVKGRFTISRDNSKNTLYLQMNSLRAEDTAVYYCAKDRLSIAVRPRYYGLDVWGQGTTVTVSS VL: DIVMTQSPLSLPVTPGEPASISCTASQSLLYSIGKNYVDWYLQKSGQSPQLLIYLGNNRATGVPDRFSGSGSGTDFTLKISRVEAEDVGFYYCMQSLTSPYTFGQGTKLEIK , state its recorded Kd.
Result: 66.9 nM
